STUDY_SYSTEM: GST tagged LXRalpha LBD (ligand binding domain) (Homo sapiens)
Construct: purchased Invitrogen pv4655
Sequence (Q13133 209-447 limits assumed): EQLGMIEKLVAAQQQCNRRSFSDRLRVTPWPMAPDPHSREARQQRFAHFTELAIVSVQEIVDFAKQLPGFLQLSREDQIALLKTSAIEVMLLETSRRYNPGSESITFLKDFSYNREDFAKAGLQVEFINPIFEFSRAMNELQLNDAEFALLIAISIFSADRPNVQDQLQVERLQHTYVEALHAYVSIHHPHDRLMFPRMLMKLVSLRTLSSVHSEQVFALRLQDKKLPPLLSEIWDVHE
TEST: LanthaScreen TR-FRET Liver X Receptor Coactivator Assay, LXR alpha-LBD (co-activator recruitment; IP and % Emax relative to T0901317)
Format: biochemical
STUDY_CONDITIONS: efficacy at max dose in relation to reference T0901317, LXR alpha-LBD; read-out: LXR alpha actiivty at max dose (%)
Excerpt: […]
Measured Emax by item
Quick reminder: number only, in %, skip the unit.

• CN(C)C(=O)c1ccc(N2CCC3(CC2)CC3CCCNC(=O)C(C)(C)c2ccccc2)cc1Cl (stereo not shown) = 0
• CN(C)C(=O)c1ccc(N2CCC3(CC2)CC3CCCNC(=O)[C@](O)(c2ccccc2)C(F)(F)F)cc1Cl (stereo partly shown) = 0
• CCOc1cccc([C@@](O)(C(=O)N(C)C[C@@H]2C[C@@H]2C2CCN(c3ccc(C(=O)N(C)C)c(Cl)n3)CC2)C(F)(F)F)c1 = 9
• CCc1cccc([C@@](O)(C(=O)N(C)CCCC2CCN(c3ccc(C(=O)N(C)C)c(Cl)n3)CC2)C(F)(F)F)c1 = 0
• CN(C)C(=O)c1ccc(N2CCC(CCCN(C)C(=O)[C@@]3(c4cccc(Cl)c4)CCCO3)CC2)nc1Cl = 0

In: Lab note: GST tagged LXRalpha LBD (ligand binding domain) (Homo sapiens) assay, enter Emax for COc1cccc([C@@](O)(C(=O)N(C)CC[C@H]2CC23CCN(c2ccc(C(=O)N(C)C(C)C)c(Cl)c2)CC3)C(F)(F)F)c1 here
Out: 6

In: Lab note: GST tagged LXRalpha LBD (ligand binding domain) (Homo sapiens) assay, enter Emax for CN(C)C(=O)c1ccc(N2CCC(CCCN(C)C(=O)[C@]3(c4ccccc4)CC(F)(F)CO3)CC2)nc1Cl here
Out: 7
